Molecular target: T1, rat GPCR135 (rat, UniProt Q8BGE9 1-472 (mouse entry))
T1 construct: Also tested as the native receptor in rat brain sections; also called rat GPCR135 receptors
T1 chain: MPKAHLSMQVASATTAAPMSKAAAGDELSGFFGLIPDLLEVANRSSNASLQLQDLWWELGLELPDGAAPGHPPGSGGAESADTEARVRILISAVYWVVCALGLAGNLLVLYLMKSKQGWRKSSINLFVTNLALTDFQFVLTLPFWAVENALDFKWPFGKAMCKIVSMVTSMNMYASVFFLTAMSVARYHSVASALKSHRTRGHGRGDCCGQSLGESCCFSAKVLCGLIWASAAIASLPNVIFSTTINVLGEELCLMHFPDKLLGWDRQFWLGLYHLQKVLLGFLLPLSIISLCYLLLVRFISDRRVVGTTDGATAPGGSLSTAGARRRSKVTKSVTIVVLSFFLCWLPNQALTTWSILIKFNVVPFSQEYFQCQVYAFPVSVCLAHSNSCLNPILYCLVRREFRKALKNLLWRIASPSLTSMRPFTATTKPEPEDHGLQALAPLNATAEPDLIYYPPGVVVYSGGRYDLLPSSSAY
Experiment: competition with [125I]R3 (100 pM), COS-7 membranes with rat GPCR135
ENDPOINT: IC50

q: Look at this binder and give its reported IC50. human relaxin (R1) (ligand, also called relaxin-1) KWKDDVIKLCGRELVRAQIAICGMSTWSRPYVALFEKCCLIGCTKRSLAKYC
a: > 1000 nM
